# Assayed system: MAP2K6 (human)
# Test method notes: radiometric filter-binding kinase assay
# Condition details: compound 0.1 µM
Listing of recorded residual activity by entry.

{"Compound": "O=C(Nc1nc2cc(C(F)(F)F)cc(NC3CC3)n2n1)c1cccnc1", "residual activity, %": 110}
{"Compound": "CC1=C(CO)C(=O)O[C@@H]([C@@H](C)[C@H]2CC[C@H]3[C@@H]4C[C@H]5O[C@]56[C@@H](O)C=CC(=O)[C@]6(C)C4CC[C@]23C)C1 (some centres not stated)", "residual activity, %": 95}
{"Compound": "Cc1ccc(Sc2cnc(Nc3cccc(Br)n3)s2)cc1C(=O)N1CCN(C(=O)CN)CC1", "residual activity, %": 94}
{"Compound": "COc1cc(O)c2c(c1)[C@H]1OC1C[C@H](O)[C@H](O)C(=O)/C=C\\C[C@H](C)OC2=O (some centres not stated)", "residual activity, %": 21}
{"Compound": "Cc1ccc(-c2ccc3c(ccc4sc5c(c43)NC[C@@H](C)NC5=O)n2)cn1", "residual activity, %": 95}
{"Compound": "CNC(=O)C1[C@H]2O[C@@](C)([C@@H]1N)n1c3ccccc3c3c4c(c5c6ccccc6n2c5c31)C(=O)NC4 (some centres not stated)", "residual activity, %": 13}
{"Compound": "O=C(N[C@@H](COc1ccc2[nH]c(=O)[nH]c2c1)c1ccccc1)c1cccn(Cc2ccc(F)c(F)c2)c1=O", "residual activity, %": 94}
{"Compound": "c1ccc2c(-c3cnn4cc(-c5ccc(N6CCNCC6)cc5)cnc34)ccnc2c1", "residual activity, %": 87}
{"Compound": "O=C(O)c1ccc(-c2c[nH]c3ncc(-c4ccccc4)cc23)cc1C1CCCC1", "residual activity, %": 97}
{"Compound": "CN(C)C/C=C/C(=O)Nc1cccc(C(=O)Nc2ccc(Nc3nccc(-c4cccnc4)n3)cc2)c1", "residual activity, %": 97}
{"Compound": "CCCCCc1ccc(/C=C/[C@H](O)[C@@H](CO)NC)cc1", "residual activity, %": 102}
{"Compound": "COc1ccc(N(C(=O)Nc2c(C)cccc2C)c2cc(Nc3ccc(N4CCN(C)CC4)cc3)ncn2)c(OC)c1", "residual activity, %": 101}
